Target: FAP protein (Homo sapiens)
Construct: purchased Sinobiological
Sequence (Q12884 whole entry): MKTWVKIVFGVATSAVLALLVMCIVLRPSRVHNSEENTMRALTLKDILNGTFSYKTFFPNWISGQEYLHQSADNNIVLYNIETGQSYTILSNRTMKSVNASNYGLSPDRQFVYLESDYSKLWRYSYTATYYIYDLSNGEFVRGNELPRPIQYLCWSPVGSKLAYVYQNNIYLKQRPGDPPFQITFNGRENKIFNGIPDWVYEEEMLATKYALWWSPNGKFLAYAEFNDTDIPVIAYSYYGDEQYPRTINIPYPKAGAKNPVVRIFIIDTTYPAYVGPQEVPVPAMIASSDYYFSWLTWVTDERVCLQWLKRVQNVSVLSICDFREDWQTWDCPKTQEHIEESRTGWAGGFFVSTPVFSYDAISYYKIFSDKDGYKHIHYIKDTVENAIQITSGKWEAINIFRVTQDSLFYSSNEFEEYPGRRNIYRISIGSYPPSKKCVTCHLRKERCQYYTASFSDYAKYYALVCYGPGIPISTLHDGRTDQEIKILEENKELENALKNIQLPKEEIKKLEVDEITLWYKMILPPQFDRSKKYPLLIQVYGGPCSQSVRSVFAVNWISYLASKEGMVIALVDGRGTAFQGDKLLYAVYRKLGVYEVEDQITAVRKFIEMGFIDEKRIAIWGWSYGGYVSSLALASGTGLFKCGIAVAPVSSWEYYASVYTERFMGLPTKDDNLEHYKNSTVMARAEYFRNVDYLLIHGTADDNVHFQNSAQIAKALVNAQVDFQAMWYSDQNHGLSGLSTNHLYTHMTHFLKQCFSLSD
Test: Biacore test of compound affinity to FAP protein
Conditions: Biacore 8K, SA chip, 15° C., 1:1 binding model; read-out: pKD (FAP) (converted)
Protocol: The Biacore 8K (Cytiva) instrument was used to detect ligand binding of the FAP protein (Sinobiological). FAP protein was captured on the SA chip. […] The sensor surface was conditioned by injecting 1M NaCl three consecutive times in 50 mM NaOH. […] Data was evaluated using the Biacore Insight Evaluation Software, and the data were fitted to a 1:1 binding model. […]
Numbered stars: 1 amine (or outer) side, 2 acyl side, 3 side chain; on linkers, the order of the positions; unused ones are H or OH. Bridge positions count the residues as written; N and C are the ends. Square brackets hold non-standard residues; d marks the D form. Side chains are listed from the residue outwards. Peptide text beside a SMILES is read from it. * marks the point of attachment. ξ: configuration not given here. NH(CH2)2O(CH2)2NHDOTA = O=C(O)CN1CCN(CC(=O)O)CCN(CC(=O)NCCOCCN*)CCN(CC(=O)O)CC1; X4 = O=C(O)CN1CCN(CC(=O)O)CCN(CC(=O)N2CCc3cc(C(=O)*)ccc3C2)CCN(CC(=O)O)CC1; X2 = O=C(O)CN1CCN(CC(=O)O)CCN(CC(=O)N2CCN(CCCN*)CC2)CCN(CC(=O)O)CC1; Azetidine3carboxylic = O=C(C1CN([*:1])C1)[*:2]; Pyridine(3,5-bisCH2) = c1ncc(C[*:2])cc1C[*:1]; mXylylene = c1cc(C[*:1])cc(C[*:2])c1; Ethylenediamine = C(CN[*:2])N[*:1]; Cha = N[C@@H](CC1CCCCC1)C(=O)O; Hexanoyl = CCCCCC(=O)*; CO = O=C([*:1])[*:2]; ξP = O=C(O)C1CCCN1; ξC = NC(CS)C(=O)O; NHBu = CCCCN*
endpoint-label: Kd

// solved cases for Kd follow
{"compound": "CCCCCC(=O)N[C@H]1CSCc2cccc(c2)CSCC(C(=O)N[C@@H](CCC(=O)NCCNC(=O)c2ccc3c(c2)CCN(C(=O)CN2CCN(CC(=O)O)CCN(CC(=O)O)CCN(CC(=O)O)CC2)C3)C(=O)O)NC(=O)[C@H](Cc2ccccc2)NC(=O)[C@H](CCC(N)=O)NC(=O)[C@H]([C@@H](C)O)NC(=O)C2CCCN2C(=O)C2CN(C2)C1=O (some centres unmarked) [JHDC25] (Hexanoyl-C[Azetidine3carboxylic][ξP]TQF[ξC]E([Ethylenediamine-X4])-OH; linker 1-7 via mXylylene)", "endpoint-label": "Kd", "reported": "10 to 100 nM"}
{"compound": "CCCCCC(=O)N[C@H]1CSCc2cccc(c2)CSCC(C(=O)N[C@@H](CCC(=O)NCCCN2CCN(C(=O)CN3CCN(CC(=O)O)CCN(CC(=O)O)CCN(CC(=O)O)CC3)CC2)C(=O)O)NC(=O)[C@H](Cc2ccccc2)NC(=O)[C@H](CCC(N)=O)NC(=O)[C@H]([C@@H](C)O)NC(=O)C2CCCN2C(=O)C2CN(C2)C1=O (some centres unmarked) [JHDC45] (Hexanoyl-C[Azetidine3carboxylic][ξP]TQF[ξC]E(X2)-OH; linker 1-7 via mXylylene)", "endpoint-label": "Kd", "reported": "< 10 nM"}
{"compound": "CCCCCC(=O)N[C@H]1CSCc2cccc(c2)CSCC(C(=O)N[C@@H](CCC(=O)NCCOCCNC(=O)CN2CCN(CC(=O)O)CCN(CC(=O)O)CCN(CC(=O)O)CC2)C(=O)O)NC(=O)CNC(=O)[C@H](CC2CCCCC2)NC(=O)[C@H](CCC(N)=O)NC(=O)[C@H]([C@@H](C)O)NC(=O)C2CCCN2C(=O)C2CN(C2)C1=O (some centres unmarked) [JHDC17] (Hexanoyl-C[Azetidine3carboxylic][ξP]TQ[Cha]G[ξC]E(NH(CH2)2O(CH2)2NHDOTA)-OH; linker 1-8 via mXylylene)", "endpoint-label": "Kd", "reported": "10 to 100 nM"}

(Q) I have this compound here, CCCCCC(=O)N[C@H]1CSCc2cccc(c2)CSCC(C(=O)N[C@@H](CCC(=O)NCCOCCNC(=O)CN2CCN(CC(=O)O)CCN(CC(=O)O)CCN(CC(=O)O)CC2)C(=O)O)NC(=O)[C@H](CC2CCCCC2)NC(=O)[C@H](CCC(N)=O)NC(=O)[C@H]([C@@H](C)O)NC(=O)C2CCCN2C(=O)C2CN(C2)C1=O (some centres unmarked) [JHDC05] (Hexanoyl-C[Azetidine3carboxylic][ξP]TQ[Cha][ξC]E(NH(CH2)2O(CH2)2NHDOTA)-OH; linker 1-7 via mXylylene) , and I need its recorded Kd.
(A) < 10 nM

(Q) I have this compound here, CCCCNC(=O)N[C@H]1CSCc2cncc(c2)CSCC(C(=O)N[C@@H](CCC(=O)NCCOCCNC(=O)CN2CCN(CC(=O)O)CCN(CC(=O)O)CCN(CC(=O)O)CC2)C(=O)O)NC(=O)[C@H](Cc2ccccc2)NC(=O)[C@H](CCC(N)=O)NC(=O)[C@H]([C@@H](C)O)NC(=O)C2CCCN2C(=O)C2CN(C2)C1=O (some centres unmarked) [JHDC33] ({NHBu-CO}-C[Azetidine3carboxylic][ξP]TQF[ξC]E(NH(CH2)2O(CH2)2NHDOTA)-OH; linker 1-7 via Pyridine(3,5-bisCH2)) , and I need its recorded Kd.
(A) 10 to 100 nM
